# credit: paper PMC9482650

Target: T1, HTRA3, P83110
T1 sequence (P83110 354-453, limits assumed, looked up): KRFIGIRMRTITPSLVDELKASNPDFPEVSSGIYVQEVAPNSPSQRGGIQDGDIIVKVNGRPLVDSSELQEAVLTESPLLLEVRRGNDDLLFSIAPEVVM
Test: holdup assay
Parameters: key: below the threshold = too weak to quantify, mostly under pKd 3.1 to 4
Settings: plain residues with an end cap or a label only (N-terminal biotin on a linker: ttds)
measured_property: pKd

{"columns": ["binder", "pKd"],
 "data": [
  ["DPRNTQTSQI [ABRAXAS2, Q15018]", "below the threshold"],
  ["LCALPKVTTV [AGMAT, Q9BSE5]", 3.71],
  ["PKRPFVESNV [TANC2, Q9HCD6]", "below the threshold"],
  ["DPLTPSRSQL [DGKK, Q5KSL6]", "below the threshold"],
  ["SEKHFRETEV [HTLV1-TAX1, P03409]", "below the threshold"]
]}

Give the reported value of pKd for this record: QFQYAKESYI [TAGAP, Q8N103]
3.76

Supply measured pKd of LDSQIQETSI [MAP4, P27816] in your reply.
below the threshold
